STUDY_TARGET: Bifunctional epoxide hydrolase 2 (Homo sapiens, UniProt P34913)
PROTOCOL_DESCRIPTION: Inhibition of human recombinant soluble Epoxide hydrolase
MEASUREMENT_KIND: pKi
// pKi is dimensionless: -log10 of concentration (M)

Noted for "O=C(CCCCCNC(=O)NC12CC3CC(CC(C3)C1)C2)N[C@@H](Cc1ccccc1)C(=O)N[C@@H](Cc1c[nH]c2ccccc12)C(=O)O" : its pKi reads 7.82

----------
PROTOCOL_DESCRIPTION: Plasma concentration in dog at 0.3 mg/kg, po after 180 min
Type: ADME, organism-based, Canis lupus familiaris
Design: dose 0.3 mg/kg, route oral
MEASUREMENT_KIND: concentration at 3 h (nM)
Numbers only here, please. The scale is nM.

Noted for "O=C(O)CCCCCCCCCCCNC(=O)NC12CC3CC(CC(C3)C1)C2" : its concentration at 3 h reads 13.4

----------
PROTOCOL_DESCRIPTION: AUC in dog at 0.3 mg/kg, po
Type: ADME, organism-based, Canis lupus familiaris
Parameters: dose 0.3 mg/kg, route oral
SETUP_CONDITIONS: plasma
MEASUREMENT_KIND: AUC

Noted for "O=C(CCCCCNC(=O)NC12CC3CC(CC(C3)C1)C2)N[C@@H](Cc1ccccc1)C(=O)N[C@@H](Cc1c[nH]c2ccccc12)C(=O)O" : its AUC reads < 1.67 nM·h

----------
PROTOCOL_DESCRIPTION: Plasma concentration in dog at 0.3 mg/kg, po after 360 min
Assay type: ADME, organism-based, Canis lupus familiaris
Set-up: dose 0.3 mg/kg, route oral
MEASUREMENT_KIND: concentration at 6 h (nM)
Numbers only here, please. The scale is nM.

Noted for "O=C(O)CCCCCCCCCCCNC(=O)NC12CC3CC(CC(C3)C1)C2" : its concentration at 6 h reads 1.17

----------
Parameter pIC50: see the listing below.
STUDY_TARGET: Bifunctional epoxide hydrolase 2 (Homo sapiens, UniProt P34913)
Sequence (P34913 whole entry): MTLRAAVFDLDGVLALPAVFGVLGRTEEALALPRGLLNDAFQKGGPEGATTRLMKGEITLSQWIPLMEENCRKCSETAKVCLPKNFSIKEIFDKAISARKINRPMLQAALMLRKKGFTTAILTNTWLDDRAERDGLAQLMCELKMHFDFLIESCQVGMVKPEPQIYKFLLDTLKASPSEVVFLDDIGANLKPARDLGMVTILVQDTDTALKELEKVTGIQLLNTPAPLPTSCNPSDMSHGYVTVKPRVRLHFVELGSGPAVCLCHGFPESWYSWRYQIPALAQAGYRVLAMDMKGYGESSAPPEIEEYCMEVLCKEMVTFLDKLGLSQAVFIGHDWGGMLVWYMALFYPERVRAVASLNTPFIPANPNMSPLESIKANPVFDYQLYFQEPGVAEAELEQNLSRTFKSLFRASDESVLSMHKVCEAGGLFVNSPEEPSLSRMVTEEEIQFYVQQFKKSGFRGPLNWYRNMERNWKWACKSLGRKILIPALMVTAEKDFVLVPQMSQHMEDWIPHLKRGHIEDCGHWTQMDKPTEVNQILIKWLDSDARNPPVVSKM
PROTOCOL_DESCRIPTION: Inhibition of human recombinant soluble Epoxide hydrolase
// pIC50 is dimensionless: -log10 of concentration (M)

SMILES_STR	TEST_RESULT
O=C(O)CNC(=O)[C@H](Cc1ccccc1)NC(=O)CCCCCNC(=O)NC1CCCCC1	5.82
O=C(CCCCCNC(=O)NC1CCCCC1)N[C@@H](Cc1ccccc1)C(=O)N[C@@H](Cc1ccccc1)C(=O)O	7.00

Noted for "C[C@H](NC(=O)[C@H](Cc1ccccc1)NC(=O)CCCCCNC(=O)NC1CCCCC1)C(=O)O" : its pIC50 reads 6.59

Noted for "O=C(CCCCCNC(=O)NC12CC3CC(CC(C3)C1)C2)N[C@@H](Cc1ccc(O)cc1)C(=O)O" : its pIC50 reads 4.10
